Attribution: patent US20220144812A1

target: CREBBP (1084-1701) (Homo sapiens, UniProt Q92793)
Construct: measured in the following biochemical assay using CREBBP (1084-1701); purchased
Sequence (Q92793 1084-1701): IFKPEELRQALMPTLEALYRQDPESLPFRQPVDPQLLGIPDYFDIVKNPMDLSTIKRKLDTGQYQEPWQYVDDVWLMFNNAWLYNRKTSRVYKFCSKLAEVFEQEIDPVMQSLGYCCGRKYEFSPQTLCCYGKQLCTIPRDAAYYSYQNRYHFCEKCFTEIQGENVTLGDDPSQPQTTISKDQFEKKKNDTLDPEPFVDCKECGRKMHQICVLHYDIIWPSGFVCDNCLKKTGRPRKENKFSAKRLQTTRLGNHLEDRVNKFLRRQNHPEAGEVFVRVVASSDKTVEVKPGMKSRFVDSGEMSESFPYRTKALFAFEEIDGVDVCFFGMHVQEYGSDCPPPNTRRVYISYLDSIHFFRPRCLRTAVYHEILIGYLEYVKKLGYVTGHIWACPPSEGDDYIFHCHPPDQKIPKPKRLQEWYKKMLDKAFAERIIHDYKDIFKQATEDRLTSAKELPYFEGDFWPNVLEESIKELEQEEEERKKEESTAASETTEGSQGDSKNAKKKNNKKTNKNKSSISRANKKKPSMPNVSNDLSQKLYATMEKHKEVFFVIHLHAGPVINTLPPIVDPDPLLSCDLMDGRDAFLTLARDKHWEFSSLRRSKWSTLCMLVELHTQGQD
protocol.description: Biochemical assay for CREBBP (1084-1701), SAMDI
run.conditions: SAMDI, read-out: CREBBP Biochemistry IC50
pIC50: −log10 of the molar value.

# compound, target, pIC50
measured = [
    ("CCn1ncc(CN(C)C(=O)c2nc(-c3cc(Cl)cc(C(=O)NC)c3)nc3ccc(Cl)cc23)c1C [Compound 392]", "CREBBP (1084-1701) (Homo sapiens, UniProt Q92793)", 4.30),
    ("CCn1ncc(CN(C)C(=O)c2cc(-c3cc4n[nH]cc4cn3)nc3ccc(COC)cc23)c1C [Compound 506]", "CREBBP (1084-1701) (Homo sapiens, UniProt Q92793)", 7.19),
    ("CCn1ncc(CN(C)C(=O)c2nc(-c3ccc(OCCNC(C)=O)c(C)c3)nc3ccc(Cl)cc23)c1C [Compound 43]", "CREBBP (1084-1701) (Homo sapiens, UniProt Q92793)", 7.16),
    ("Cc1c(CN(C)C(=O)c2cc(-c3cccc(Cl)c3)nc3ccccc23)cnn1C(C)C [Compound 304]", "CREBBP (1084-1701) (Homo sapiens, UniProt Q92793)", 4.37),
    ("CCn1ncc(CN(C)C(=O)c2nc(-c3ccc(OCCCNC)cc3)nc3ccc(Cl)cc23)c1C [Compound 110]", "CREBBP (1084-1701) (Homo sapiens, UniProt Q92793)", 5.49),
    ("CCn1ncc(CN(C)C(=O)c2nc(-c3ccccc3Cl)nc3c(C#N)cccc23)c1C [Compound 211]", "CREBBP (1084-1701) (Homo sapiens, UniProt Q92793)", 4.49),
    ("CCc1ncc(CN(C)C(=O)c2cc(-c3ccc(NCCNC)c(F)n3)nc3ccc(Cl)cc23)n1C [Compound 565]", "CREBBP (1084-1701) (Homo sapiens, UniProt Q92793)", 7.29),
    ("CCn1ncc(CN(C)C(=O)c2cc(-c3ccccc3Cl)nc3cc(Cl)c(Cl)cc23)c1C [Compound 97]", "CREBBP (1084-1701) (Homo sapiens, UniProt Q92793)", 6.33),
]
